This collection of values is drawn from the supplement of paper PMC11451515.

system: SEM cells; assay: cell viability relative to DMSO control; higher = less cytotoxic; conditions: HPLM + 10% dialyzed FBS; 48 h; 46.1 µM
Reported cell viability by item:
parameter measured: cell viability

compound | assayed target | measured
NC(=O)c1cccc2cn(-c3ccc([C@@H]4CCCNC4)cc3)nc12 | SEM cells | 50%
OC(=O)C(CC/1=C/C(=O)NC2=CC=CC=C12)NC(=O)C3=CC=C(Cl)C=C3 (centres undefined) | SEM cells | 112%
CN(C)CCN(C)C(=O)c1ccc(NC(=O)Nc2ccc(-c3nc(N4CCOCC4)c4ccn(CC(F)(F)F)c4n3)cc2)cc1 | SEM cells | 54.3%
CC[C@@]1(O)C(=O)OCC/2=C1/C=C3\N(CC4=CC5=CC(=CC=C5N=C34)O)C2=O | SEM cells | 5.91%
COc1ccc(C2Sc3ccccc3N(CCN(C)C)C(=O)C2OC(C)=O)cc1 (centres undefined) | SEM cells | 108%
C[S+](=O)([O-])c1ccc(-c2cnc(N)c(C(=O)Nc3ccccc3)n2)cc1 | SEM cells | 20.2%
Cc1ccc([S+](=O)([O-])Nc2nc3ccccc3nc2Nc2ccc3nsnc3c2)cc1 | SEM cells | 59.1%
CCO[C@@H]1OC(=O)C[C@@H]1NC(=O)[C@@H]1CCCN1C(=O)[C@@H](NC(=O)c1ccc(N)c(Cl)c1)C(C)(C)C | SEM cells | 111%
Oc1cccc(-c2nc(N3CCOCC3)c3oc4ncccc4c3n2)c1 | SEM cells | 5.23%
